System: A549/ATCC NSCLC
protocol-details: NCI-60 one-dose screen, 48 h (100 = growth as untreated, 0 = no growth, -100 = all killed)
assay-conditions: 10 µM unless noted
About 83,000 compounds went through this panel and 20% of them were active in at least one assay; those are over-represented in the sample as a whole. The source made the active and inactive calls. The calls were made as follows: active = growth percent below 10; inactive = the rest.
measure-name: growth

smiles_structure=O=S(=O)(NCCCNc1nccc(-c2[nH]c(-c3ccccc3)nc2-c2ccc(Cl)c(O)c2)n1)c1cccc(F)c1 measure_name=growth reading="65.2% (inactive)"
smiles_structure=O=C(Nc1cccc(Cl)c1)Nc1nc2ccc([N+](=O)[O-])cc2o1 measure_name=growth reading="17.2% (inactive)"
smiles_structure=CCCCCc1ccc(S(=O)(=O)Nc2cccc(-c3csc(NC(=O)CN4CCN(C)CC4)n3)c2)cc1 measure_name=growth reading="79.7% (inactive)"
smiles_structure=NC(N)=Nc1ccc(Nc2cccc(Oc3ccc(Cl)c(C(F)(F)F)c3)c2)cn1 measure_name=growth reading="19.9% (inactive)"
